Target: T1, cynomolgus uPAR (recombinant) (cynomolgus monkey, UniProt Q9GK78 23-303, limits assumed)
T1 construct: also called cyno uPAR; AF647-cyno uPAR
T1 sequence (looked up): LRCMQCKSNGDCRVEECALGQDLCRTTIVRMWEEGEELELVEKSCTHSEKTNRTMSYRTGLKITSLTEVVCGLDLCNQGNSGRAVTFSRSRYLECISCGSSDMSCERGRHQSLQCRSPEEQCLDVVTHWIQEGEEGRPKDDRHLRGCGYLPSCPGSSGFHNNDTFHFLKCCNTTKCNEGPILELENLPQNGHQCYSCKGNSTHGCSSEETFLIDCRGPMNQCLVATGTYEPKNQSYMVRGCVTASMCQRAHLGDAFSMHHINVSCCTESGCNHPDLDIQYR
Assay: ELISA, plate-coated cyno uPAR
measure: pEC50
Just so you know, pEC50 here is -log10 of the concentration in molar units; reply with that number alone.

Request: Fill blank: measured pEC50 of the binder Antibody 11857 (antibody, human IgG1, V domains shown) VH: EVQLRQSGPELVKPGASVKISCKASGYTFTDYYMNWVKQSHEKSLEWIGNINPNNGGTDYNQKFKGKATLTVDKSSSTAYMELRSLTSEDSAVYYCARSYGSRFPYWGLGTLVTVSA VL: DIQMTQTTSSLSASLGDRVTISCRASQDITNYLSWYQQKPDGTVKLLIFYTAVLQSGFPLRFSGSGSGADYSLTISNLEQEDFATYFCQQGHTLPWTFGGGTKLEIK is ____.
Response: 9.74

Request: Please report the recorded pEC50 for Antibody 8163 (antibody, human IgG1, V domains shown, Chimeric: mouse VH/VL linked to Herceptin (trastuzumab) human IgG1 / kappa constant regions) VH: EVQLVESGGGLVQPGESLTLSCDSNEFDFPSHDMSWVRKTPEKRLELVAAIDSDGGLTYYSNSRERRFIISRDNTKNTLYLQMRSLRSEDTALYYCARRRASYWYFDVWGTGTTVTVSS VL: DILLTQSPAILPVSPGERVSFSCRASQNIGTSIHWYQQRTNGSPRLLIKYASESISGIPSRFSGSGSGTDFTLSINGVESEDIGDYYCQQSNSWPTFGGGTKLEIK .
Response: 9.82

Request: Fill in the blank: the reported pEC50 of Antibody 3159 (antibody, human IgG1, V domains shown, Chimeric: mouse VH/VL linked to Herceptin (trastuzumab) human IgG1 / kappa constant regions) VH: QVTLKESGPGILQSSLTLSLTCSLSGFSLSTSGMGVSWIRQPSGKGLEWLAHIYWDDDKRYNPSLKTRLTISKDASRDQVFLKIISVDTADTGTYYCGRRVRNYFSGTSYWYFDVWGTGTTVTVSS VL: DVLMTQTPLSLSVSLGDQASISCRSSQNILHRTGNTYLEWYLQKPGQSPKLLIYKVSNRFSGVPDRFSGSGSGTDFTLKISRLEAEDLGVYYCFQGSYVPFTFGSGTKLEMK is ____.
Response: 9.57

Request: # query: pEC50 of entry Antibody 3595 (antibody, human IgG1, V domains shown, Chimeric: mouse VH/VL linked to Herceptin (trastuzumab) human IgG1 / kappa constant regions) VH: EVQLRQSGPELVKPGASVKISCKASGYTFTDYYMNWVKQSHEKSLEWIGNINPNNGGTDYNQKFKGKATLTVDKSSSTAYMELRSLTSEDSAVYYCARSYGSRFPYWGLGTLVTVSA VL: DIQMTQTTSSLSASLGDRVTISCRASQDITNYLSWYQQKPDGTVKLLIFYTSFLQSGVPLRFSGSGSGADYSLTISNLEQEDFATYFCQQGHTLPWTFGGGTKLEIK
Response: 10.00
